# assayProcedure: in vivo
# appliedConditions: mouse, po
measuredParameter: LD50 at 168 h (mg/kg)
Please state the figure in mg/kg; there is no need to write the unit.

// query State, in one line, measured LD50 at 168 h of CCCCCCCCCCCC(=O)OC[n+]1ccn(C)c1 [IRx-1229]
// result 4110

* * *

Target or system S. pyogenes: recorded MIC listed per item.
Please state the figure in µg/mL; there is no need to write the unit.

# count of solved cases: 3
- compound: "CCCCCCCCCCCCCC(=O)OC[n+]1ccccc1"
  MIC, µg/mL: 4.2
- compound: "CCCCCCCCCCCC(=O)OC[n+]1ccccc1 [Compound 3, n-Dodecanoyloxymethylpyridinium chloride]"
  MIC, µg/mL: 71.5
- compound: "CCCCCCCCCCCCCCCC(=O)OC[n+]1ccccc1"
  MIC, µg/mL: 268

// query State, in one line, measured MIC of CCCCCCCC(=O)OC[n+]1ccccc1 [Compound 2, n-Octanoyloxymethylpyridinium chloride]
// result 529

// query State, in one line, measured MIC of `CCCCCCCCCCCC(=O)OC[n+]1ccn(C)c1`
// result 2

Where do the numbers come from? From patent US4204065A.
